Data origin, for the record: ChEMBL document CHEMBL2384955

tested on: Pseudomonas aeruginosa; assay: Antibacterial activity against Pseudomonas aeruginosa ATCC 27853 assessed as growth inhibition assessed as cell viability after 24 hrs by resazurin-based microplate assay; format: functional; conditions: ATCC 27853, 24 h
measurement.label: MIC (µg/mL)

// solved cases for MIC follow
{"smiles.structure": "CC(C)[C@@H](CC[C@@H](C)[C@H]1CC[C@H]2[C@@H]3[C@@H](O)C[C@H]4C[C@@H](NCCCNCCCCN)CC[C@]4(C)[C@H]3CC[C@]12C)OS(=O)(=O)O.O=C(O)C(F)(F)F", "display.unit": "µg/mL", "recorded.result": 24}
{"smiles.structure": "CC(C)[C@@H](CC[C@@H](C)[C@H]1CC[C@H]2[C@@H]3[C@@H](O)C[C@H]4C[C@@H](NCCCNCCCCNCCCN)CC[C@]4(C)[C@H]3CC[C@]12C)OS(=O)(=O)O.O=C(O)C(F)(F)F", "display.unit": "µg/mL", "recorded.result": 32}

a. CC(C)[C@@H](CC[C@@H](C)[C@H]1CC[C@H]2[C@@H]3[C@H](O)C[C@H]4C[C@@H](NCCCNCCCCNCCCN)CC[C@]4(C)[C@H]3CC[C@]12C)OS(=O)(=O)O.Cl
b. CC(C)[C@@H](CC[C@@H](C)[C@H]1CC[C@H]2[C@@H]3[C@H](O)C[C@H]4C[C@@H](NCCCNCCCCN)CC[C@]4(C)[C@H]3CC[C@]12C)OS(=O)(=O)O.CC(O)C(=O)O
Task item: When their MIC values are compared, which is larger, a or b ? // respond with label for picked entry
Reply: a
(a: 8 µg/mL, b: 4 µg/mL)
